Exercise: for every item that follows, state its recorded MIC90.
system: Staphylococcus cohnii; assay: Antibacterial activity against methicillin-susceptible coagulase-negative Staphylococcus cohnii clinical isolate by broth microdilution method; type: functional
Units required after the number.

Before answering, review these 3 worked examples.
>>> experimental_result("CCCCCCCCCC(=O)N[C@@H](Cc1c[nH]c2ccccc12)C(=O)N[C@H](CC(N)=O)C(=O)N[C@@H](CC(=O)O)C(=O)N[C@@H]1C(=O)NCC(=O)N[C@@H](CCCN)C(=O)N[C@@H](CC(=O)O)C(=O)N[C@H](C)C(=O)N[C@@H](CC(=O)O)C(=O)NCC(=O)N[C@H](CO)C(=O)N[C@@H]([C@H](C)CC(=O)O)C(=O)N[C@@H](CC(=O)c2ccccc2N)C(=O)O[C@@H]1C")
"1 µg/mL"
>>> experimental_result("CCCCCCCCCCNCCN[C@@]1(C)C[C@H](O[C@H]2[C@H](Oc3c4cc5cc3Oc3ccc(cc3Cl)[C@@H](O)[C@@H](NC(=O)[C@@H](CC(C)C)NC)C(=O)N[C@@H](CC(N)=O)C(=O)N[C@H]5C(=O)N[C@H]3C(=O)N[C@H](C(=O)N[C@H](C(=O)O)c5cc(O)c(CNCP(=O)(O)O)c(O)c5-c5cc3ccc5O)[C@H](O)c3ccc(c(Cl)c3)O4)O[C@H](CO)[C@@H](O)[C@@H]2O)O[C@@H](C)[C@H]1O [TELAVANCIN]")
"0.5 µg/mL"
>>> experimental_result("CN[C@H](CC(C)C)C(=O)N[C@H]1C(=O)N[C@@H](CC(N)=O)C(=O)N[C@H]2C(=O)N[C@H]3C(=O)N[C@H](C(=O)N[C@H](C(=O)O)c4cc(O)cc(O)c4-c4cc3ccc4O)[C@H](O)c3ccc(c(Cl)c3)Oc3cc2cc(c3O[C@@H]2O[C@H](CO)[C@@H](O)[C@H](O)[C@H]2O[C@H]2C[C@](C)(N)[C@H](O)[C@H](C)O2)Oc2ccc(cc2Cl)[C@H]1O [VANCOMYCIN]")
"2 µg/mL"

// switching to the query compound
CC(=O)NC[C@H]1CN(c2ccc(N3CCOCC3)c(F)c2)C(=O)O1 [LINEZOLID] yielded MIC90 of 1 µg/mL

These entries and their values trace back to ChEMBL document CHEMBL1255376.
